assay: Stability of peptides in simulated gastric fluid (pH 1.5; HCl, NaCl and Pepsin); format: in vitro ADME; conditions: simulated gastric fluid, 24 h, 2 μM, pH 1.5
Where a SMILES comes first, the peptide text is derived from it. [ ]: non-standard residue; d: D form. ξ: configuration not given here. ξαMeBip(2'-Et,4'-OMe) = CCc1cc(OC)ccc1-c1ccc(CC(C)(N)C(=O)O)cc1; Arg(NO2) = N=C(NCCC[C@H](N)C(=O)O)N[N+](=O)[O-]; ξαMePhe(2,6-F2) = CC(N)(Cc1c(F)cccc1F)C(=O)O; ξαMePhe(2-F) = CC(N)(Cc1ccccc1F)C(=O)O; hhPhe = N[C@@H](CCCc1ccccc1)C(=O)O; hArg = N=C(N)NCCCC[C@H](N)C(=O)O; hCit = NC(=O)NCCCC[C@H](N)C(=O)O; Nle = CCCC[C@H](N)C(=O)O; Ac5c = NC1(C(=O)O)CCCC1; Aib = CC(C)(N)C(=O)O
Catalogue of % degradation of peptides in 24 h when incubated with simulated gastric fluid values
# number only, unit % dropped from output

Worked cases, answers included:
compound: CC[C@H](C)[C@H](NC(=O)[C@H](CCC(=O)O)NC(=O)C(C)(C)NC(=O)[C@@H](NC(=O)C1(NC(=O)[C@@H](N)C(C)C)CC1)C(C)C)C(=O)N[C@@H](CCC(N)=O)C(=O)N[C@@H](CC(C)C)C(=O)NC(C)(CCSC)C(=O)N[C@@H](Cc1c[nH]cn1)C(=O)N[C@@H](CCC(N)=O)C(=O)N[C@@H](CCCCNC(=N)N)C(=O)N[C@@H](C)C(=O)N[C@@H](CCCCNC(=N)N)C(=O)NC(C)(Cc1c[nH]c2ccccc12)C(=O)NC(C)(CCCc1ccccc1)C(N)=O (single isomer, unassigned)
unitDescriptor: %
measValue: 00

compound: CCc1cc(OC)ccc1-c1ccc(CC(C)(NC(=O)[C@H](CCCCN)NC(=O)[C@H](C)NC(=O)[C@H](CCCCNC(=N)N)NC(=O)[C@H](CCC(N)=O)NC(=O)[C@H](Cc2c[nH]cn2)NC(=O)[C@H](CCSC)NC(=O)[C@H](CC(C)C)NC(=O)[C@H](CCC(N)=O)NC(=O)[C@@H](NC(=O)[C@H](CCC(=O)O)NC(=O)C(C)(C)NC(=O)[C@@H](NC(=O)C(C)(C)N)C(C)C)[C@@H](C)CC)C(=O)N[C@@H](CCCc2ccccc2)C(N)=O)cc1 (stereo partly shown) [Seq. ID. 890] (H-[Aib]V[Aib]EIQLMHQ[hArg]AK[ξαMeBip(2'-Et,4'-OMe)][hhPhe]-NH2)
unitDescriptor: %
measValue: 00

compound: CCCC[C@H](NC(=O)C(C)(Cc1c(F)cccc1F)NC(=O)[C@H](CCC(N)=O)NC(=O)[C@@H](NC(=O)[C@H](CCC(=O)O)NC(=O)C(C)(C)NC(=O)[C@@H](NC(=O)C1(N)CCCC1)C(C)C)[C@@H](C)CC)C(=O)N[C@@H](Cc1c[nH]cn1)C(=O)N[C@@H](CCC(N)=O)C(=O)N[C@@H](CCCCNC(N)=O)C(=O)NC(C)(C)C(=O)NC(C)(C)C(=O)NC(C)(Cc1c(F)cccc1F)C(N)=O (stereo partly shown) [Seq. ID. 440] (H-[Ac5c]V[Aib]EIQ[ξαMePhe(2,6-F2)][Nle]HQ[hCit][Aib][Aib][ξαMePhe(2,6-F2)]-NH2)
unitDescriptor: %
measValue: 43

Problem: Report % degradation of peptides in 24 h when incubated with simulated gastric fluid for CCCC[C@H](NC(=O)C(C)(Cc1ccccc1F)NC(=O)[C@H](CCC(N)=O)NC(=O)[C@@H](NC(=O)[C@H](CCC(=O)O)NC(=O)C(C)(C)NC(=O)[C@@H](NC(=O)C1(N)CCCC1)C(C)C)[C@@H](C)CC)C(=O)N[C@@H](Cc1c[nH]cn1)C(=O)N[C@@H](CCC(N)=O)C(=O)N[C@@H](CCCCNC(=N)N)C(=O)NC(C)(C)C(=O)N[C@@H](CCCNC(=N)N[N+](=O)[O-])C(=O)NC(C)(Cc1c(F)cccc1F)C(N)=O (stereo partly shown) [Seq. ID. 270] (H-[Ac5c]V[Aib]EIQ[ξαMePhe(2-F)][Nle]HQ[hArg][Aib][Arg(NO2)][ξαMePhe(2,6-F2)]-NH2) please.
Result: 100

====

experiment: Stability of peptides in human liver microsomes; format: in vitro ADME; conditions: human, microsomes, 24 h, 2 μM, pH 7.8
Where a SMILES comes first, the peptide text is derived from it. [ ]: non-standard residue; d: D form. ξ: configuration not given here. ξαMeBip(2'-Et,4'-OMe) = CCc1cc(OC)ccc1-c1ccc(CC(C)(N)C(=O)O)cc1; Arg(NO2) = N=C(NCCC[C@H](N)C(=O)O)N[N+](=O)[O-]; ξαMePhe(2,6-F2) = CC(N)(Cc1c(F)cccc1F)C(=O)O; ξαMePhe(2-F) = CC(N)(Cc1ccccc1F)C(=O)O; hhPhe = N[C@@H](CCCc1ccccc1)C(=O)O; hArg = N=C(N)NCCCC[C@H](N)C(=O)O; Cit = NC(=O)NCCC[C@H](N)C(=O)O; ξαMeF = CC(N)(Cc1ccccc1)C(=O)O; ξαMeM = CSCCC(C)(N)C(=O)O; Nle = CCCC[C@H](N)C(=O)O; ξαMeP = CC1(C(=O)O)CCCN1; Ac5c = NC1(C(=O)O)CCCC1; Aib = CC(C)(N)C(=O)O
measurementLabel: % degradation of peptides in 24 h when incubated with liver microsomes (%)
# number only, unit % dropped from output

Worked cases, answers included:
compound: CCCC[C@H](NC(=O)C(C)(Cc1ccccc1F)NC(=O)[C@H](CCC(N)=O)NC(=O)[C@@H](NC(=O)[C@H](CCC(=O)O)NC(=O)C(C)(C)NC(=O)[C@@H](NC(=O)C1(N)CCCC1)C(C)C)[C@@H](C)CC)C(=O)N[C@@H](Cc1c[nH]cn1)C(=O)N[C@@H](CCC(N)=O)C(=O)N[C@@H](CCCCNC(=N)N)C(=O)NC(C)(C)C(=O)N[C@@H](CCCNC(=N)N[N+](=O)[O-])C(=O)NC(C)(Cc1ccccc1F)C(N)=O (some centres unmarked) [Seq. ID. 250] (H-[Ac5c]V[Aib]EIQ[ξαMePhe(2-F)][Nle]HQ[hArg][Aib][Arg(NO2)][ξαMePhe(2-F)]-NH2)
unitDescriptor: %
measValue: 80
//
compound: CCCC[C@H](NC(=O)C(C)(Cc1c(F)cccc1F)NC(=O)[C@H](CCC(N)=O)NC(=O)[C@@H](NC(=O)[C@H](CCC(=O)O)NC(=O)C(C)(C)NC(=O)[C@@H](NC(=O)C1(N)CCCC1)C(C)C)[C@@H](C)CC)C(=O)N[C@@H](Cc1c[nH]cn1)C(=O)N[C@@H](CCC(N)=O)C(=O)NC(C)(Cc1c(F)cccc1F)C(=O)NC(C)(C)C(=O)N[C@@H](CCCNC(N)=O)C(=O)NC(C)(Cc1ccccc1F)C(N)=O (some centres unmarked) [Seq. ID. 480] (H-[Ac5c]V[Aib]EIQ[ξαMePhe(2,6-F2)][Nle]HQ[ξαMePhe(2,6-F2)][Aib][Cit][ξαMePhe(2-F)]-NH2)
unitDescriptor: %
measValue: 32
//
compound: CCCC[C@H](NC(=O)C(C)(Cc1c(F)cccc1F)NC(=O)[C@H](CCC(N)=O)NC(=O)[C@@H](NC(=O)[C@H](CCC(=O)O)NC(=O)C(C)(C)NC(=O)[C@@H](NC(=O)C1(N)CCCC1)C(C)C)[C@@H](C)CC)C(=O)N[C@@H](Cc1c[nH]cn1)C(=O)N[C@@H](CCC(N)=O)C(=O)N[C@@H](CCCCNC(=N)N)C(=O)NC(C)(C)C(=O)NC(C)(Cc1c(F)cccc1F)C(=O)NC(C)(Cc1ccccc1F)C(N)=O (some centres unmarked) [Seq. ID. 220] (H-[Ac5c]V[Aib]EIQ[ξαMePhe(2,6-F2)][Nle]HQ[hArg][Aib][ξαMePhe(2,6-F2)][ξαMePhe(2-F)]-NH2)
unitDescriptor: %
measValue: 83
//
compound: CC[C@H](C)[C@H](NC(=O)[C@H](CCC(=O)O)NC(=O)C(C)(C)NC(=O)[C@@H](NC(=O)C(C)(C)N)C(C)C)C(=O)N[C@@H](CCC(N)=O)C(=O)N[C@@H](CC(C)C)C(=O)NC(C)(CCSC)C(=O)N[C@@H](Cc1c[nH]cn1)C(=O)N[C@@H](CCC(N)=O)C(=O)N[C@@H](CCCCNC(=N)N)C(=O)N[C@@H](C)C(=O)N[C@@H](CCCCNC(=N)N)C(=O)NC(C)(Cc1ccccc1F)C(=O)N[C@@H](CCCc1ccccc1)C(N)=O (some centres unmarked) [Seq. ID. 930] (H-[Aib]V[Aib]EIQL[ξαMeM]HQ[hArg]A[hArg][ξαMePhe(2-F)][hhPhe]-NH2)
unitDescriptor: %
measValue: 32
//
compound: CCCC[C@H](NC(=O)C(C)(Cc1c(F)cccc1F)NC(=O)[C@H](CCC(N)=O)NC(=O)[C@@H](NC(=O)[C@H](CCC(=O)O)NC(=O)C1(NC(=O)[C@@H](NC(=O)C2(N)CCCC2)C(C)C)CCCC1)[C@@H](C)CC)C(=O)N[C@@H](Cc1c[nH]cn1)C(=O)N[C@@H](CCC(N)=O)C(=O)N[C@@H](CCCCNC(=N)N)C(=O)N1CCCC1(C)C(=O)N[C@@H](CCCCN)C(=O)NC(C)(Cc1ccccc1)C(N)=O (some centres unmarked) [Seq. ID. 46] (H-[Ac5c]V[Ac5c]EIQ[ξαMePhe(2,6-F2)][Nle]HQ[hArg][ξαMeP]K[ξαMeF]-NH2)
unitDescriptor: %
measValue: 31

Problem: Report % degradation of peptides in 24 h when incubated with liver microsomes for CCc1cc(OC)ccc1-c1ccc(CC(C)(NC(=O)[C@H](CCCCN)NC(=O)[C@H](C)NC(=O)[C@H](CCCCNC(=N)N)NC(=O)[C@H](CCC(N)=O)NC(=O)[C@H](Cc2c[nH]cn2)NC(=O)[C@H](CCSC)NC(=O)[C@H](CC(C)C)NC(=O)[C@H](CCC(N)=O)NC(=O)[C@@H](NC(=O)[C@H](CCC(=O)O)NC(=O)C(C)(C)NC(=O)[C@@H](NC(=O)C(C)(C)N)C(C)C)[C@@H](C)CC)C(=O)N[C@@H](CCCc2ccccc2)C(N)=O)cc1 (some centres unmarked) [Seq. ID. 890] (H-[Aib]V[Aib]EIQLMHQ[hArg]AK[ξαMeBip(2'-Et,4'-OMe)][hhPhe]-NH2) please.
Result: 32

Problem: Report % degradation of peptides in 24 h when incubated with liver microsomes for CCCC[C@H](NC(=O)C(C)(Cc1ccccc1F)NC(=O)[C@H](CCC(N)=O)NC(=O)[C@@H](NC(=O)[C@H](CCC(=O)O)NC(=O)C(C)(C)NC(=O)[C@@H](NC(=O)C(C)(C)N)C(C)C)[C@@H](C)CC)C(=O)N[C@@H](Cc1c[nH]cn1)C(=O)N[C@@H](CCC(N)=O)C(=O)N[C@@H](CCCCNC(=N)N)C(=O)N[C@@H](C)C(=O)NC(C)(C)C(=O)NC(C)(Cc1ccccc1F)C(N)=O (some centres unmarked) [Seq. ID. 161] (H-[Aib]V[Aib]EIQ[ξαMePhe(2-F)][Nle]HQ[hArg]A[Aib][ξαMePhe(2-F)]-NH2) please.
Result: 80

Problem: Report % degradation of peptides in 24 h when incubated with liver microsomes for CCCC[C@H](NC(=O)C(C)(Cc1ccccc1F)NC(=O)[C@H](CCC(N)=O)NC(=O)[C@@H](NC(=O)[C@H](CCC(=O)O)NC(=O)C(C)(C)NC(=O)[C@@H](NC(=O)C(C)(C)N)C(C)C)[C@@H](C)CC)C(=O)N[C@@H](Cc1c[nH]cn1)C(=O)N[C@@H](CCC(N)=O)C(=O)N[C@@H](CCCCNC(=N)N)C(=O)NC(C)(C)C(=O)NC(C)(C)C(=O)NC(C)(Cc1c(F)cccc1F)C(N)=O (some centres unmarked) [Seq. ID. 182] (H-[Aib]V[Aib]EIQ[ξαMePhe(2-F)][Nle]HQ[hArg][Aib][Aib][ξαMePhe(2,6-F2)]-NH2) please.
Result: 26

Source listed as patent US8383581B2.
